Hello, the source for this data is patent US20230026808A1, in case you need it.

assay: in vivo; settings: monkey, iv, NOAEL (no observed adverse effect level), monkeys, 2-week GLP IV infusion (20-minute)
endpoint label: NOAEL at 2 weeks (mg/kg/day)

>>> value("Cc1ccc(Nc2nccc(N(C)c3ccc4c(C)n(C)nc4c3)n2)cc1S(N)(=O)=O")
10

====

assay: in vivo; details: rat, iv
endpoint label: NOAEL at 2 weeks (mg/kg/day)

>>> value("Cc1ccc(Nc2nccc(N(C)c3ccc4c(C)n(C)nc4c3)n2)cc1S(N)(=O)=O")
10

====

test: in vivo; settings: monkey, iv, NOAEL, 5 days, IV 20 minute infusion
endpoint label: NOAEL at 5 days (mg/kg)

>>> value("Cc1ccc(Nc2nccc(N(C)c3ccc4c(C)n(C)nc4c3)n2)cc1S(N)(=O)=O [pazopanib]")
30
